Hey, just so you know, these numbers are from patent US20040067889A1.

# Test system: endogenous proteases
# Test details: Stability of synthetic BNP-32 spiked into normal human plasma with protease inhibitors (chemiluminescent BNP immunoassay)
# Format: biochemical
Outcome measure: BNP, 3 hours at 4° C. (pg/mL)
The answer is to be given in pg/mL; state only the numeric part.

Here is how some compounds turned out for BNP, 3 hours at 4° C..
Compound: NC(N)=NCCC[C@H](NC(=O)[C@@H]1CCCN1C(=O)[C@H](N)Cc1ccccc1)C(=O)CCl
BNP, 3 hours at 4° C. / pg/mL: 894.6
//
Compound: NCCc1ccc(S(=O)(=O)F)cc1 [AEBSF, 4-(2-aminoethyl)benzenesulfonylfluoride]
BNP, 3 hours at 4° C. / pg/mL: 768.6
//
Compound: CC(=O)N[C@@H](CC(C)C)C(=O)N[C@@H](CC(C)C)C(=O)N[C@H](C=O)CCCNC(=N)N
BNP, 3 hours at 4° C. / pg/mL: 896.9

Here's the next entry for you.
Data point: N=C(N)c1ccccc1 ; BNP, 3 hours at 4° C. = 806.8

====

# Test system: endogenous proteases
# Test details: Stability of synthetic BNP-32 spiked into normal human plasma with protease inhibitors (chemiluminescent BNP immunoassay)
# Assay type: biochemical
Outcome measure: BNP, 1st run (Time 0) (pg/mL)
The answer is to be given in pg/mL; state only the numeric part.

Data point: N=C(N)c1ccccc1 ; BNP, 1st run (Time 0) = 830.6

Data point: CC(=O)N[C@@H](CC(C)C)C(=O)N[C@@H](CC(C)C)C(=O)N[C@H](C=O)CCCNC(=N)N ; BNP, 1st run (Time 0) = 792.0

Data point: NCCc1ccc(S(=O)(=O)F)cc1 [AEBSF, 4-(2-aminoethyl)benzenesulfonylfluoride] ; BNP, 1st run (Time 0) = 741.7

Data point: NC(N)=NCCC[C@H](NC(=O)[C@@H]1CCCN1C(=O)[C@H](N)Cc1ccccc1)C(=O)CCl ; BNP, 1st run (Time 0) = 892.0
